assay.target: Human Factor XIa (human, UniProt P03951)
method.summary: enzyme inhibition of FXIa, chromogenic substrate, fit to the tight-binding equation (apparent Ki*)
property.measured: Ki (nM)
Number in nM, nothing else.

# example entries with known answers
binder | property.measured | assay.result
KALI-D (designed binder) VREVCSEQAEDGHCRAAHPRWYFDVTEGKCAPFFYGGCGGNRNNFDTEEYCAAVCGSA | Ki | 5.7
KALI-P (designed binder) VREVCSEQAEPGHCRAAHPRWYFDVTEGKCAPFFYGGCGGNRNNFDTEEYCAAVCGSA | Ki | 13.8

Incoming: Answer with the recorded Ki of KALI-EY (designed binder) VREVCSEQAEEGHCRAAHPRWYFDVTEGKCAPFYYGGCGGNRNNFDTEEYCAAVCGSA only.
Outgoing: 7.3

Incoming: Answer with the recorded Ki of KALI-E (designed binder) VREVCSEQAEEGHCRAAHPRWYFDVTEGKCAPFFYGGCGGNRNNFDTEEYCAAVCGSA only.
Outgoing: 4.5

Value source: patent US5780265
